System: Leishmania donovani
test: Antileishmanial activity against Leishmania donovani MHOM/IN/Dd8 promastigotes assessed as inhibition of parasitic growth at 2 ug/ml after 72 hrs by luciferase activity-based luminescence assay
Type: functional
The molecules listed here are annotated with their inhibition at 2 µg/mL.

molecule: COc1cc(/C=C/C(=O)CCC2C(C)=CCCC2(C)C)cc(OC)c1OC (stereo unspecified)
unitOfMeasurement: %
inhibition at 2 µg/mL: 50

molecule: CC1=CCCC(C)(C)C1CCC(=O)/C=C/c1ccc(CO)o1 (stereo unspecified)
unitOfMeasurement: %
inhibition at 2 µg/mL: 65

molecule: COc1ccc(/C=C/C(=O)CCC2C(C)=CCCC2(C)C)cc1 (stereo unspecified)
unitOfMeasurement: %
inhibition at 2 µg/mL: 98

molecule: CC1=CCCC(C)(C)C1CCC(=O)/C=C/c1ccc(Cl)cc1 (stereo unspecified)
unitOfMeasurement: %
inhibition at 2 µg/mL: 100

molecule: CC1=CCCC(C)(C)C1CCC(=O)/C=C/c1cccc([N+](=O)[O-])c1 (stereo unspecified)
unitOfMeasurement: %
inhibition at 2 µg/mL: 98

molecule: CC1=CCCC(C)(C)C1CCC(=O)/C=C/c1cccnc1 (stereo unspecified)
unitOfMeasurement: %
inhibition at 2 µg/mL: 100

molecule: CC1=CCCC(C)(C)C1CCC(=O)/C=C/c1ccc(O)cc1 (stereo unspecified)
unitOfMeasurement: %
inhibition at 2 µg/mL: 76

molecule: CC1=CCCC(C)(C)C1CCC(=O)/C=C/c1ccccc1[N+](=O)[O-] (stereo unspecified)
unitOfMeasurement: %
inhibition at 2 µg/mL: 34

molecule: CC1=CCCC(C)(C)C1CCC(=O)/C=C/c1ccc([N+](=O)[O-])cc1 (stereo unspecified)
unitOfMeasurement: %
inhibition at 2 µg/mL: 95

molecule: CC1=CCCC(C)(C)C1CCC(=O)/C=C/c1ccc(OCc2ccccc2)cc1 (stereo unspecified)
unitOfMeasurement: %
inhibition at 2 µg/mL: 61

molecule: COc1ccc(/C=C/C(=O)CCC2C(C)=CCCC2(C)C)cc1OC (stereo unspecified)
unitOfMeasurement: %
inhibition at 2 µg/mL: 100
